These measurements were taken from ChEMBL document CHEMBL3259819.

METHOD_SUMMARY: Toxicity in erythrocytes (unknown origin) assessed as hemolytic activity
Type: cell-based, Erythrocyte
STUDY_CONDITIONS: read-out: HD50 (the source's name)
Where a SMILES comes first, the peptide text is derived from it.
READOUT_LABEL: HC50 (µM)
Provide the reading as a plain figure in µM.

## Task Recorded HC50 of CC[C@H](C)[C@H](N)C(=O)N[C@@H](Cc1ccccc1)C(=O)NCC(=O)N[C@@H](C)C(=O)N[C@H](C(=O)N[C@@H](CC(C)C)C(=O)N1CCC[C@H]1C(=O)N[C@@H](CC(C)C)C(=O)N[C@@H](C)C(=O)N[C@@H](CC(C)C)C(=O)NCC(=O)N[C@@H](C)C(=O)N[C@@H](CC(C)C)C(=O)N[C@@H](CCCCN)C(=O)N[C@@H](CC(N)=O)C(=O)N[C@@H](CC(C)C)C(=O)N[C@H](C(=O)N[C@@H](CCCCN)C(=O)O)[C@@H](C)CC)[C@@H](C)CC (H-IFGAILPLALGALKNLIK-OH) , please.
## Result 18

* * *

METHOD_SUMMARY: Hemolytic activity in human erythrocytes at 320 uM after 60 mins
Format: ADME, cell-based, Erythrocyte
STUDY_CONDITIONS: read-out: Activity
Where a SMILES comes first, the peptide text is derived from it.
READOUT_LABEL: hemolysis at 1 h, 320 µM (%)
Provide the reading as a plain figure in %.

## Task Recorded hemolysis at 1 h, 320 µM of CC(C)C[C@H](NC(=O)[C@H](CO)NC(=O)[C@@H]1CCCN1C(=O)[C@H](CO)NC(=O)[C@H](CC(C)C)NC(=O)[C@@H](N)CCCCN)C(=O)NCC(=O)N1CCC[C@H]1C(=O)N[C@H](C(=O)N[C@@H](CO)C(=O)N[C@@H](CCCCN)C(=O)NCC(=O)N[C@@H](CCCCN)C(=O)N[C@@H](CC(C)C)C(=O)N[C@@H](CC(C)C)C(=O)N[C@@H](C)C(=O)NCC(=O)N[C@@H](CCC(N)=O)C(=O)N[C@@H](CCCNC(=N)N)C(N)=O)C(C)C (H-KLSPSLGPVSKGKLLAGQR-NH2) , please.
## Result 100

* * *

METHOD_SUMMARY: Hemolytic activity in human erythrocytes at 20 uM after 60 mins
Format: ADME, cell-based, Erythrocyte
STUDY_CONDITIONS: read-out: Activity
Where a SMILES comes first, the peptide text is derived from it.
READOUT_LABEL: hemolysis at 1 h, 20 µM

## Task Recorded hemolysis at 1 h, 20 µM of CC(C)C[C@H](NC(=O)CNC(=O)[C@H](C)NC(=O)[C@H](CC(C)C)NC(=O)[C@H](CC(C)C)NC(=O)[C@@H](NC(=O)[C@H](CCCCN)NC(=O)[C@H](CC(C)C)NC(=O)[C@H](CC(C)C)NC(=O)[C@H](C)NC(=O)[C@@H]1CCCN1C(=O)[C@H](CC(C)C)NC(=O)[C@H](C)NC(=O)[C@@H](NC(=O)CNC(=O)[C@H](CC(C)C)NC(=O)[C@@H](N)CCCNC(=N)N)[C@@H](C)O)[C@@H](C)O)C(=O)N[C@@H](CC(N)=O)C(=O)NCC(N)=O (H-RLGTALPALLKTLLAGLNG-NH2) , please.
## Result > 90%
